molecular target: Intercellular adhesion molecule (ICAM-1), Integrin alpha-L/beta-2 (Homo sapiens, UniProt P05107+P20701); assay: Inhibitory concentration against leukocyte function-associated antigen-1 in HSB-2 human lymphoblast and H1HeLa cell adhesion assay
Sequence (P20701 whole entry): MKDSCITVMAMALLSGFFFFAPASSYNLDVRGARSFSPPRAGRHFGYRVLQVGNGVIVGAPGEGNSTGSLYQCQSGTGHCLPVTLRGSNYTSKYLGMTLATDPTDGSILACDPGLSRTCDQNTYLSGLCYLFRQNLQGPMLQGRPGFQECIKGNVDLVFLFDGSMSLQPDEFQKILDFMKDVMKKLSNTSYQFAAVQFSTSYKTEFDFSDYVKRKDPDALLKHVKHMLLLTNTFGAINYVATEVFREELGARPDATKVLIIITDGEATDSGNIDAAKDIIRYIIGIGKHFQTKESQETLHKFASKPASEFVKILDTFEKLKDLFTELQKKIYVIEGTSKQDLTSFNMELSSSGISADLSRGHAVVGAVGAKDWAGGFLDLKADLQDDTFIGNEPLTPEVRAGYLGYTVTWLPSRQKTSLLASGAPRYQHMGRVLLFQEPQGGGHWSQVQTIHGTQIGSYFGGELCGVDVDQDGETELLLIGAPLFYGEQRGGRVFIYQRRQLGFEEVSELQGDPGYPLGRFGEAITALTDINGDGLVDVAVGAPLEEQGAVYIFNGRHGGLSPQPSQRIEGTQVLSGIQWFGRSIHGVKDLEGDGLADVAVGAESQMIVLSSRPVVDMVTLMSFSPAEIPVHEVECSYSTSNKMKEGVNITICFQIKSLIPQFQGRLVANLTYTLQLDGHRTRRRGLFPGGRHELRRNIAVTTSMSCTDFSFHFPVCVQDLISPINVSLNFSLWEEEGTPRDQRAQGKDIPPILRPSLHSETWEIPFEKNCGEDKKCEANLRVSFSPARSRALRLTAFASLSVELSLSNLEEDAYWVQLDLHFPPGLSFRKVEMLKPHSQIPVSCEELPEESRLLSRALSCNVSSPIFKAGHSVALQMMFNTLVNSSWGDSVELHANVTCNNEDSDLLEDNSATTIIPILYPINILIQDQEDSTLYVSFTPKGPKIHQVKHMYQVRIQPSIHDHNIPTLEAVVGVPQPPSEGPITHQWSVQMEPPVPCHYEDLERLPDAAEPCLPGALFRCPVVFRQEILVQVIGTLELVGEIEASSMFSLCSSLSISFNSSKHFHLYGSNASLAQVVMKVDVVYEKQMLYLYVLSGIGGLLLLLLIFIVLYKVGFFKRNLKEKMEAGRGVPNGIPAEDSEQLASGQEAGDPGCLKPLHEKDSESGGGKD
Sequence (P05362 whole entry, further chain): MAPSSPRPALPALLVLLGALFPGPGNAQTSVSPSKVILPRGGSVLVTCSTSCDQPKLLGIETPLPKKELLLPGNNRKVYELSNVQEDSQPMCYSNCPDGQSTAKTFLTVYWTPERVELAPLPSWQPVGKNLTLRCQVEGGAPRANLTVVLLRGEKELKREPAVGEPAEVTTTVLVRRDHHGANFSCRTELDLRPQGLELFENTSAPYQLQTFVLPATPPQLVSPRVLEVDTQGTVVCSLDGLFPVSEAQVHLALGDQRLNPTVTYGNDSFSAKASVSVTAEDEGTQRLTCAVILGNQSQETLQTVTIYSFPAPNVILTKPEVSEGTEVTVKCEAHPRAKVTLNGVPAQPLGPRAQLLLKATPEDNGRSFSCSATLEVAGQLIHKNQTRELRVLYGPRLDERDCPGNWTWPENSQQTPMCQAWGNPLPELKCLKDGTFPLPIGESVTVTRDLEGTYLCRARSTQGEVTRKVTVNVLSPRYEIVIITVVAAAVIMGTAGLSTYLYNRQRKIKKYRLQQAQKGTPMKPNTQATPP
Sequence (P05107 whole entry): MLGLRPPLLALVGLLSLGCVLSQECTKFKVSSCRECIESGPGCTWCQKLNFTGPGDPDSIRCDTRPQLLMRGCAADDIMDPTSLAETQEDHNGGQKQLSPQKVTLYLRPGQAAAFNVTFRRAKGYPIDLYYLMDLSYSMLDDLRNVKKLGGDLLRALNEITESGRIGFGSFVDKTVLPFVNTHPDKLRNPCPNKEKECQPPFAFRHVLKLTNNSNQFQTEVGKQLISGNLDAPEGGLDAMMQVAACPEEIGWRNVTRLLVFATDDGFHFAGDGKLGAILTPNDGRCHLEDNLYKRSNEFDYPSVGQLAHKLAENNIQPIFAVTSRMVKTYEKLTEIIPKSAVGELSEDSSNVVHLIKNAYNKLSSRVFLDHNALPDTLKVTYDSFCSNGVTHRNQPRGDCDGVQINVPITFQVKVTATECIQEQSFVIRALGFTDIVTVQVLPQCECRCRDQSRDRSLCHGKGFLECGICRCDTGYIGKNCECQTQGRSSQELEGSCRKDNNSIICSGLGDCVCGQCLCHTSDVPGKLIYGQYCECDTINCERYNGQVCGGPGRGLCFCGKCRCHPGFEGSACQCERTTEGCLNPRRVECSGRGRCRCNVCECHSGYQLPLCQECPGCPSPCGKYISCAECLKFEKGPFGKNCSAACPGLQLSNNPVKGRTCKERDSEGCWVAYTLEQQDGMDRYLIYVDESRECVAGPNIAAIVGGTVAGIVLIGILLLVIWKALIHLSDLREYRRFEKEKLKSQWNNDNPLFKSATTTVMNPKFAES
pIC50: −log10 of the molar value.
// reported pIC50 per item

{"columns": ["compound-smiles", "pIC50"],
 "data": [
  ["CCN(Cc1cccc(-c2ccc(C#N)cc2)c1)[C@H]1C[C@H]2C(=O)N(c3cc(Cl)cc(Cl)c3)C(=O)N2C1", 6.14],
  ["N#Cc1ccc(-c2cccc(CN[C@H]3C[C@H]4C(=O)N(c5cc(Cl)cc(Cl)c5)C(=O)N4C3)c2)cc1", 6.76],
  ["O=C1[C@H]2C[C@@H](OCc3cccc(-c4ccc(Br)cc4)c3)CN2C(=O)N1c1cc(Cl)cc(Cl)c1", 6.56],
  ["O=C1[C@@H]2C[C@H](OCc3cccc(-c4cccc(Br)c4)c3)CN2C(=O)N1c1cc(Cl)cc(Cl)c1", 6.12],
  ["O=C1[C@@H]2C[C@@H](OCc3cccc(-c4ccc(Br)cc4)c3)CN2C(=O)N1c1cc(Cl)cc(Cl)c1", 6.03]
]}
